- protocol: Selectivity ratio of IC50 for PDE6 to IC50 for PDE5
attribute.measured: Ratio IC50
Lab note: record the figure alone, no unit after it.

Examples from the recorded data:
Challenge: Query: Ratio IC50; subject: CCCOCCn1c(=O)c(NC2CCC(O)CC2)nc2cnc(-c3ccc(OC)nc3)cc21 (stereo not given)
Response given: 200

Challenge: Query: Ratio IC50; subject: CCCOCCn1c(=O)nc(N[C@@H]2CCCC[C@@H]2C(=O)O)c2nnc(-c3ccc(OC)nc3)cc21 (racemic)
Response given: 110

Challenge: Query: Ratio IC50; subject: CCCOCCn1c(=O)c(NCCN2CCOCC2)nc2cnc(-c3ccc(OC)nc3)cc21
Response given: 158

Challenge: Query: Ratio IC50; subject: CCCOCCn1c(=O)nc(NCC(=O)N(C)C)c2nnc(-c3ccc(OC)nc3)cc21
Response given: 296

Challenge: Query: Ratio IC50; subject: CCOCCn1c(=O)nc(N2CCN(CCO)CC2)c2nnc(-c3ccc(OC)nc3)cc21
Response given: 98

Next compound, Ratio IC50 to be filled in.
Challenge: Query: Ratio IC50; subject: CCCOCCn1c(=O)nc(NCCOC(C)C)c2cnc(-c3ccc(OC)nc3)cc21
Response given: 450

----------
- protocol: Selectivity ratio of IC50 for PDE11 to IC50 for PDE5
Listing: Ratio IC50 of selected compounds
Lab note: record the figure alone, no unit after it.

Examples from the recorded data:
Challenge: Query: Ratio IC50; subject: CCCOCCn1c(=O)nc(N[C@H](C)C(=O)O)c2nnc(-c3ccc(OC)nc3)cc21
Response given: 76

Challenge: Query: Ratio IC50; subject: CCCOCCn1c(=O)nc(NC(C)(C)C(=O)O)c2nnc(-c3ccc(OC)nc3)cc21
Response given: 129

Challenge: Query: Ratio IC50; subject: CCCOCCn1c(=O)c(NCCN2CCOCC2)nc2cnc(-c3ccc(OC)nc3)cc21
Response given: 4860

---
Challenge: Query: Ratio IC50; subject: CCCOCCn1c(=O)nc(N[C@@H]2CCCC[C@H]2C(=O)O)c2nnc(-c3ccc(OC)nc3)cc21 (racemic)
Response given: 1390

----------
As a worked illustration, we turn to IC50 data collected for cGMP-specific 3',5'-cyclic phosphodiesterase (Homo sapiens).
Give a bare numeral; the unit nM is implied.

Examples from the recorded data:
Challenge: Query: IC50; subject: CCCOCCn1c(=O)c(N2CCN(CCO)CC2)nc2ncc(-c3ccc(OC)nc3)cc21
Response given: 0.35

Challenge: Query: IC50; subject: CCCOCCn1c(=O)nc(N2CCN(CCO)CC2)c2ncc(-c3ccc(OC)nc3)cc21
Response given: 1.64

Challenge: Query: IC50; subject: COc1ccc(-c2cc3c(nn2)c(NC2CCC(O)CC2)nc(=O)n3CCOCC(F)(F)F)cn1 (centres undefined)
Response given: 0.04

Next compound, IC50 to be filled in.
Challenge: Query: IC50; subject: CCCOCCn1c(=O)nc(NC2CCNCC2)c2nnc(-c3ccc(OC)nc3)cc21
Response given: 1.31

----------
- protocol: Selectivity ratio of IC50 for PDE6 to IC50 for PDE5
# label = y if Ratio IC50 >= 400 else n

Past entries and their recorded results:
Challenge: hey, is Ratio IC50 for this one >= 400? CCCOCCn1c(=O)nc(NCCC(=O)O)c2nnc(-c3ccc(OC)nc3)cc21
Response given: n

Challenge: hey, is Ratio IC50 for this one >= 400? CCCOCCn1c(=O)c(N2CCN(CCO)CC2)nc2cnc(-c3ccc(OC)nc3)cc21
Response given: n

Challenge: hey, is Ratio IC50 for this one >= 400? CCCOCCn1c(=O)nc(N2CCC(O)CC2)c2nnc(-c3ccc(OC)nc3)cc21
Response given: n

---
Challenge: hey, is Ratio IC50 for this one >= 400? CCOCCn1c(=O)nc(NCC(=O)N(C)C)c2nnc(-c3ccc(OC)nc3)cc21
Response given: n

Challenge: hey, is Ratio IC50 for this one >= 400? COc1ccc(-c2cc3c(nn2)c(N2CCN(CCO)CC2)nc(=O)n3CCOCC(F)(F)F)cn1
Response given: y

Challenge: hey, is Ratio IC50 for this one >= 400? CCCOCCn1c(=O)nc(N2CCC(CC(=O)O)CC2)c2nnc(-c3ccc(OC)nc3)cc21
Response given: n

Challenge: hey, is Ratio IC50 for this one >= 400? CCCOCCn1c(=O)nc(NC2CCC(O)CC2)c2cnc(-c3ccc(OC)nc3)cc21 (centres undefined)
Response given: y

Challenge: hey, is Ratio IC50 for this one >= 400? CCCOCCn1c(=O)nc(NCCN2CCOCC2)c2nnc(-c3ccc(OC)nc3)cc21
Response given: y

Challenge: hey, is Ratio IC50 for this one >= 400? CCCOCCn1c(=O)nc(NC2CCC(O)CC2)c2ncc(-c3ccc(OC)nc3)cc21 (centres undefined)
Response given: y

----------
- protocol: Selectivity ratio of IC50 for PDE6 to IC50 for PDE5
attribute.measured: Ratio IC50

Challenge: Query: Ratio IC50; subject: CCCOCCn1c(=O)nc(NC2CCC(C(=O)O)CC2)c2nnc(-c3ccc(OC)nc3)cc21 (stereo not given)
Response given: 246

Challenge: Query: Ratio IC50; subject: CCCOCCn1c(=O)nc(N2CCCC(C(=O)O)C2)c2nnc(-c3ccc(OC)nc3)cc21 (stereo not given)
Response given: 162

---
Challenge: Query: Ratio IC50; subject: CCCOCCn1c(=O)nc(NC2CCNCC2)c2nnc(-c3ccc(OC)nc3)cc21
Response given: 576

Challenge: Query: Ratio IC50; subject: COc1ccc(-c2cc3c(nn2)c(NCC(=O)N(C)C)nc(=O)n3CCOCC(F)(F)F)cn1
Response given: 2200

Challenge: Query: Ratio IC50; subject: CCCOCCn1c(=O)c(NC2CCC(O)CC2)nc2ncc(-c3ccc(OC)nc3)cc21 (stereo not given)
Response given: 48

Challenge: Query: Ratio IC50; subject: CCCOCCn1c(=O)nc(N2CCC(C(=O)O)CC2)c2nnc(-c3ccc(OC)nc3)cc21
Response given: 119

Challenge: Query: Ratio IC50; subject: CCCOCCn1c(=O)nc(NCCN2CCOCC2)c2cnc(-c3ccc(OC)nc3)cc21
Response given: 334

Challenge: Query: Ratio IC50; subject: CCCOCCn1c(=O)nc(N[C@@H]2CCCC[C@H]2C(=O)O)c2nnc(-c3ccc(OC)nc3)cc21 (racemic)
Response given: 47

Challenge: Query: Ratio IC50; subject: CCCOCCn1c(=O)nc(N2CCN(CCO)CC2)c2nnc(-c3ccc(OC)nc3)cc21
Response given: 124

Challenge: Query: Ratio IC50; subject: CCCOCCn1c(=O)nc(N2CCN(CCO)CC2)c2ncc(-c3ccc(OC)nc3)cc21
Response given: 381

Values compiled from ChEMBL document CHEMBL1914420.
